Listed next: entries and their corresponding BaF3-ROS1-IL3 pIC50.
Molecular target: Ba/F3 cells containing Ros1 wild-type protein (Homo sapiens, UniProt P08922, cells depend on it, form not given)
Construct: The background only speaks of 'a number of different unrelated proteins' and names SLC34A2-ROS1 for HCC78 cells
Sequence (P08922 whole entry, stated change not applied): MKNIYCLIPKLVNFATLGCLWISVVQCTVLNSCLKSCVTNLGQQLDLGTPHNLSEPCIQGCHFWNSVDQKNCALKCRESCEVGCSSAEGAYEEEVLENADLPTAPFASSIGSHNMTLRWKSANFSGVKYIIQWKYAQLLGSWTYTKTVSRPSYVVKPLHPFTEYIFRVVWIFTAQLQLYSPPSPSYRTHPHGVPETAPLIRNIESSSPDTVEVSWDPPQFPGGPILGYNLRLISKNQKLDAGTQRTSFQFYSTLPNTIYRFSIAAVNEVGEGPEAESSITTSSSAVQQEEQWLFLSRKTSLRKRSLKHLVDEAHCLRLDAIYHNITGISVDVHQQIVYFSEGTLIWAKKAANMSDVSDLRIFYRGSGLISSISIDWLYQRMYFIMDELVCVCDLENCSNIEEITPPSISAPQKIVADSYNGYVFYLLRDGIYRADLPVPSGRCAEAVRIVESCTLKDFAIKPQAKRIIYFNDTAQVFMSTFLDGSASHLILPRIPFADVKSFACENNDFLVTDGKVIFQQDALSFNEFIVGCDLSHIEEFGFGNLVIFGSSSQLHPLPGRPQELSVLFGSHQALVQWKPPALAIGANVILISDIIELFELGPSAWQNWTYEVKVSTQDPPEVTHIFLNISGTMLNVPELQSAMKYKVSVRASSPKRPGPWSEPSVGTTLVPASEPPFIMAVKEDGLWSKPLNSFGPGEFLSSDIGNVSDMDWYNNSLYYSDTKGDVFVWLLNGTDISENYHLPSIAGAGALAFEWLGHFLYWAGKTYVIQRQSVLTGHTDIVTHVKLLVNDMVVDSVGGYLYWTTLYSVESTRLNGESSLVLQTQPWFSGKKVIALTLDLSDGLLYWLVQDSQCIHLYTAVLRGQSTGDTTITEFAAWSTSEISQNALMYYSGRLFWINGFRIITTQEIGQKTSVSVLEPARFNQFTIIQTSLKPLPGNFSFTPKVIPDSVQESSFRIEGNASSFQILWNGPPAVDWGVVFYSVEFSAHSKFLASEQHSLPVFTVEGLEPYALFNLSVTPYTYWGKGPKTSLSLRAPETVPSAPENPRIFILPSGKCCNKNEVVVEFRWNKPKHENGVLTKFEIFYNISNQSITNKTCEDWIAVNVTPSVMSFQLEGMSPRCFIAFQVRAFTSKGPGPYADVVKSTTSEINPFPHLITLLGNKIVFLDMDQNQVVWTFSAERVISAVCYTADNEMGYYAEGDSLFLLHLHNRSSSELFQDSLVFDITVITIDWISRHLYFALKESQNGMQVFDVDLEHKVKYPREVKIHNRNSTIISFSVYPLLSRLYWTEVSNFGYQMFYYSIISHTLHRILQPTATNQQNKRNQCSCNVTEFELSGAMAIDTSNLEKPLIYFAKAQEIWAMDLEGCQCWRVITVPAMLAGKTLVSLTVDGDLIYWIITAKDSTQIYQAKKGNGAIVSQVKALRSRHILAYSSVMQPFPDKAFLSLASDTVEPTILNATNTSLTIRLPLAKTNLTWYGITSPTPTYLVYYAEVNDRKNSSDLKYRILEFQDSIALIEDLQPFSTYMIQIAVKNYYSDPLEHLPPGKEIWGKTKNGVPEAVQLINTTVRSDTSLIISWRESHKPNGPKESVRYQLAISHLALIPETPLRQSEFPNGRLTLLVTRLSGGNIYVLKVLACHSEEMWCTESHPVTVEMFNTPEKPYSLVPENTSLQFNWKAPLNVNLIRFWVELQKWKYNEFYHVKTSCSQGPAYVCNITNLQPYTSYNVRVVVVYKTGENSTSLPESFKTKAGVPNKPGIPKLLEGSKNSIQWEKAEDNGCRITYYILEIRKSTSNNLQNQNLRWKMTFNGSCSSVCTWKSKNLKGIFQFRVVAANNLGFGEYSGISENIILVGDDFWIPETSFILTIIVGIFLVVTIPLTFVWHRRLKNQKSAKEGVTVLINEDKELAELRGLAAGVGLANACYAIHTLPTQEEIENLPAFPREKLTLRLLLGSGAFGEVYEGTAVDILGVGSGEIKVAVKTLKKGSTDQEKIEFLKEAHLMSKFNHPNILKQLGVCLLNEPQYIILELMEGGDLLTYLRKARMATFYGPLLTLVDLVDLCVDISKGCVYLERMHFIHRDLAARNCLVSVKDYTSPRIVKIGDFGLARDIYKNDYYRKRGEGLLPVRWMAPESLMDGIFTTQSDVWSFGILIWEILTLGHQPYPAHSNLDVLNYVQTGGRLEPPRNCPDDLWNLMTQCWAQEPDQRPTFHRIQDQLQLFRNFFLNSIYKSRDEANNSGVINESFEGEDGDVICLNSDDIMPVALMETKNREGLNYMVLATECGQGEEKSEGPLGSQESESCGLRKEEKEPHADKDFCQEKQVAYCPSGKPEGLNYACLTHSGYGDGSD
Experiment: Ba/F3-Ros1 cell proliferation assay, wild-type Ros1
Type: cell-based, murine
Conditions: without IL-3
API note: the answer field is a bare number with no unit suffix.

Some entries whose results are on file:
Specify measured BaF3-ROS1-IL3 pIC50 for CC(C)c1ccc(COc2ccc(-c3c(-c4ccncc4)nn4c3C(=O)N(CCC#N)CC4)cc2)cc1 .
7.7

Specify measured BaF3-ROS1-IL3 pIC50 for CC(C)c1ccc(COc2ccc(-c3c(-c4ccncc4)nn4c3C(=O)N(CC(=O)O)CC4)cc2)cc1 .
5.1

Specify measured BaF3-ROS1-IL3 pIC50 for CC(C)c1ccc(COc2ccc(-c3c(-c4ccncc4)nn4c3C(=O)NCC4)cc2)cc1CCN .
7.1

Now let's try a different one.
Specify measured BaF3-ROS1-IL3 pIC50 for CC(C)c1ccc(C2CNc3cc(-c4c(-c5ccncc5)nn5c4C(=O)NCC5)cnc3O2)cc1 (stereo not shown) .
6.5
